- measurement target: BRD4-BD1 (Homo sapiens (Human))
- method notes: BRD4 AlphaScreen assay, BRD4-BD1
- test settings: biotin-labeled tetra-acetylated histone H4 peptide, 75 min, room temperature, read-out: BRD4 BD-1 enzyme IC50
pIC50: −log10 of the molar value. Counter-ions that a name gives are not always drawn.
// values below are reported pIC50
metric: pIC50

{"columns": ["molecule", "measurement target", "data value"],
 "data": [
  ["Cc1cc2c(cc(NCC3CCC3)c3nnc(C)n32)n1Cc1ccccc1 [Example 241]", "BRD4-BD1 (Homo sapiens (Human))", "6.00 to 7.00"],
  ["Cc1nnc2ccc3c(cc(-c4cc[nH]n4)n3Cc3cccc(CN4CCC4)c3)n12 [Example 182, tris(trifluoroacetate) Salt]", "BRD4-BD1 (Homo sapiens (Human))", "≥ 7.00"],
  ["Cc1cc2c(cc(NC(N)=O)c3nnc(C)n32)n1Cc1cccc(F)c1F [Example 237]", "BRD4-BD1 (Homo sapiens (Human))", "≥ 7.00"],
  ["Cc1nnc2ccc3c(cc(C(=O)NCCN(C)C)n3Cc3cccc(Cl)c3)n12 [Example 115, bis(trifluoroacetate) Salt]", "BRD4-BD1 (Homo sapiens (Human))", "6.00 to 7.00"],
  ["Cc1cc2c(ccc3nnc(C)n32)n1Cc1ccc2ccccc2n1 [Example 21]", "BRD4-BD1 (Homo sapiens (Human))", "6.00 to 7.00"],
  ["Cc1nnc2ccc3c(cc(-c4ccn[nH]4)n3Cc3cccc(Cl)c3)n12 [Example 155, bis(trifluoroacetate) Salt]", "BRD4-BD1 (Homo sapiens (Human))", "≥ 7.00"],
  ["Cc1cc2c(cc(NCC3CC3)c3nnc(C)n32)n1Cc1ccccc1 [Example 228]", "BRD4-BD1 (Homo sapiens (Human))", "≥ 7.00"],
  ["Cc1cc2c(cc(N[C@H]3CC[C@@H](C#N)CC3)c3nnc(C)n32)n1Cc1ccccc1 (single isomer, unassigned) [Example 215 b, Trifluoroacetate Salt]", "BRD4-BD1 (Homo sapiens (Human))", "≥ 7.00"],
  ["CCNC(=O)c1cc2c(ccc3nnc(C)n32)n1Cc1cccc(C(F)(F)F)c1 [Example 137, Trifluoroacetate Salt]", "BRD4-BD1 (Homo sapiens (Human))", "≥ 7.00"],
  ["Cc1cc2c(cc(NC3CCC(C#N)CC3)c3nnc(C)n32)n1Cc1ccccc1 (single isomer, unassigned) [Example 215 a, Trifluoroacetate Salt]", "BRD4-BD1 (Homo sapiens (Human))", "6.00 to 7.00"],
  ["Cc1cc2c(ccc3nnc(C)n32)n1Cc1ccc(F)cc1 [Example 16]", "BRD4-BD1 (Homo sapiens (Human))", "≥ 7.00"],
  ["Cc1nnc2ccc3c(cc(-c4ccn(C5CN(S(=O)(=O)N(C)C)C5)n4)n3Cc3cccc(Cl)c3)n12 [Example 161, bis(trifluoroacetate) Salt]", "BRD4-BD1 (Homo sapiens (Human))", "≥ 7.00"],
  ["CCS(=O)(=O)N1CC(n2ccc(-c3cc4c(ccc5nnc(C)n54)n3Cc3cccc(Cl)c3)n2)C1 [Example 166, Trifluoroacetate Salt]", "BRD4-BD1 (Homo sapiens (Human))", "≥ 7.00"],
  ["Cc1nnc2ccc3c(cc(C(=O)NC4CCC4)n3Cc3ccccc3)n12 [Example 85]", "BRD4-BD1 (Homo sapiens (Human))", "≥ 7.00"]
]}
